# Assay type: in vivo, human
# Experimental Context: human, plasma, po, 12.5 mg, AUC0–t, MTX 12.5 mg oral alone (Day 1), plasma, N = 1

>  <Compound>
CN(Cc1cnc2nc(N)nc(N)c2n1)c1ccc(C(=O)N[C@@H](CCC(=O)O)C(=O)O)cc1 [MTX, methotrexate, reference compound]

>  <AUC(0-t)>
2360 ng·h/mL

$$$$

---

# Assay type: in vivo, human
# Experimental Context: human, plasma, po, 10 mg, t1/2, MTX 10 mg oral alone (Day 1), plasma, N = 1

>  <Molecule>
CN(Cc1cnc2nc(N)nc(N)c2n1)c1ccc(C(=O)N[C@@H](CCC(=O)O)C(=O)O)cc1 [MTX, methotrexate, reference compound]

>  <half-life>
3.5 h

$$$$

Where do the numbers come from? From paper PMC4467241.
